target: FGFR3 kinase (human recombinant GST fusion protein) (Homo sapiens)
Construct: GST
Sequence (P22607 23-806): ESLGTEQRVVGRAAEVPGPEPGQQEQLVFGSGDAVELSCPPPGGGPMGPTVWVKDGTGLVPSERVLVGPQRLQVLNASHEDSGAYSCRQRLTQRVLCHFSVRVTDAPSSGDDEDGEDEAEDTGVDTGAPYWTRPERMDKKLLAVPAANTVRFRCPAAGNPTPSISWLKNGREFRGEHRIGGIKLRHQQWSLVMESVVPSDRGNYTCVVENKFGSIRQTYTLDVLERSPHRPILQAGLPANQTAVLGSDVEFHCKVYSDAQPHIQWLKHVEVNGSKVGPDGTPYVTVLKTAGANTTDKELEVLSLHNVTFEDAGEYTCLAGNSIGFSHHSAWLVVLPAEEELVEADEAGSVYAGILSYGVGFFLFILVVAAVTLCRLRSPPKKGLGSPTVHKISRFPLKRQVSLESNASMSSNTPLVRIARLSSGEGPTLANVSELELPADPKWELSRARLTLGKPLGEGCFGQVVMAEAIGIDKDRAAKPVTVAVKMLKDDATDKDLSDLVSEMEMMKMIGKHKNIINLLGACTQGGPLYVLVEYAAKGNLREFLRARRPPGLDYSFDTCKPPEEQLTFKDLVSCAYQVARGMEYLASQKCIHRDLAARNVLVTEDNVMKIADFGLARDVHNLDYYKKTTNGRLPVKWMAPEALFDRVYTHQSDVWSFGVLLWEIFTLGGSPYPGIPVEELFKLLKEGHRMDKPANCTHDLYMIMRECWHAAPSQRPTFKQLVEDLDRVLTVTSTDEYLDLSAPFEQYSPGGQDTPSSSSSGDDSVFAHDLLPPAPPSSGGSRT
test-protocol: FGFR3 cell free kinase assay (33P-ATP incorporation, FlashPlate, ProQinase)
experimental-context: test substance: methanesulfonate; 1 μM [γ-33P]-ATP; substrate biotinylated Poly(Glu, Tyr)4:1; 30° C., 80 minutes; 10 points from 10 μM to 0.0003 μM; read-out: FGFR3 kinase-inhibiting activity (IC50)
reported-metric: pIC50
API: returns pIC50 as number; meaning -log10 of concentration in mol/L.

Sample `COc1cc2nccc(Oc3ccc(NC(=O)NC4CC4)c(Cl)c3)c2cc1C(N)=O` ; pIC50 observed: 6.85
